meta.source: patent US12290596B2

Experiment: Two-period crossover pharmacokinetics of nalmefene 3 mg IN vs 1.0 mg IM (Example 12)
Settings: human, plasma, other: intranasal, 3 mg, Mean plasma concentration, Treatment A 3.0 mg IN; 0.500 h
property-name: concentration at 0.5 h (ng/mL)
Write the number in ng/mL without appending the unit.

Q: Give the reported value of concentration at 0.5 h for this record: C=C1CC[C@@]2(O)[C@H]3Cc4ccc(O)c5c4[C@@]2(CCN3CC2CC2)[C@H]1O5
A: 6.25

###

Assay: Two-period crossover pharmacokinetics of nalmefene 3 mg IN vs 1.0 mg IM (Example 12)
Settings: human, plasma, other: intranasal, 3 mg, Mean plasma concentration, Treatment A 3.0 mg IN; 0.00 h
property-name: concentration at 0 h (pg/mL)
Write the number in pg/mL without appending the unit.

Q: Give the reported value of concentration at 0 h for this record: C=C1CC[C@@]2(O)[C@H]3Cc4ccc(O)c5c4[C@@]2(CCN3CC2CC2)[C@H]1O5
A: 1.46
